Reference source: patent US20240091226A1

Tested on: 10 cell lines from a variety of tumor types
procedure.text: 2D culture viability (counterpart of soft agar assay)
Format: cell-based
condition.details: Homo sapiens, HCT-116, HCT116, Colorectal
assay.metric: pIC50
One number for each entry, as −log10 of the molar value.

Please report the recorded pIC50 for `COc1cc(N2CCN(C)CC2)c(Cl)cc1Nc1ncc(Cl)c(Nc2cccnc2N2CCCC2=O)n1` . 5.47

----------
Tested on: 10 cell lines from a variety of tumor types
procedure.text: 2D culture viability (counterpart of soft agar assay)
Assay type: cell-based
condition.details: Homo sapiens, Lovo, Colorectal
assay.metric: IC50 (µM)
Answers are plain numbers, in µM.

Which IC50 reading was recorded for the compound `COc1cc(N2CCN(C)CC2)c(Cl)cc1Nc1ncc(Cl)c(Nc2cccnc2N2CCCC2=O)n1` ? 3.58

----------
Test system: 10 cell lines from a variety of tumor types
procedure.text: Soft agar colony formation assay (3D colonies)
Format: cell-based
condition.details: Homo sapiens, SW948, SW948, Colorectal; 3D soft agar colonies
Experimental: In cancer research, natural cell characteristics and architectures can often be more closely mimicked by 3D cell models than monolayer cultures. The comparative efficacy of compound of structural formula I was explored in 2D and 3D culture systems using the soft agar colony formation assay and PDXO cultures. In each case, viability of the culture was assessed after treatment with compound of structural formula I. Soft Agar Colony Formation Assay. […]
assay.metric: IC50 (nM)
Give bare numbers, in nM.

Which IC50 is reported for this compound? `COc1cc(N2CCN(C)CC2)c(Cl)cc1Nc1ncc(Cl)c(Nc2cccnc2N2CCCC2=O)n1` 730

----------
procedure.text: Kinetic solubility in water, SGF and FaSSIF at 37° C.
Assay type: physicochemical
condition.details: SGF, 37 °C, simulated gastric fluid, thermodynamic from solid, SGF, 24 hrs, read-out: S: solubility
assay.metric: solubility at 24 h (µg/mL)
Numbers only, in µg/mL.

Could you share which solubility at 24 h value was measured for COc1cc(N2CCN(C)CC2)c(Cl)cc1Nc1ncc(Cl)c(Nc2cccnc2N2CCCC2=O)n1 [Freebase Type E+F] ? 7200

----------
Test system: 10 cell lines from a variety of tumor types
procedure.text: Soft agar colony formation assay (3D colonies)
Type: cell-based
condition.details: T84, Colorectal; 3D soft agar colonies
assay.metric: IC50 (nM)
Give bare numbers, in nM.

Param item = `COc1cc(N2CCN(C)CC2)c(Cl)cc1Nc1ncc(Cl)c(Nc2cccnc2N2CCCC2=O)n1` ; retrieve measured IC50. 1500

----------
System: 10 cell lines from a variety of tumor types
procedure.text: Soft agar colony formation assay (3D colonies)
Format: cell-based
condition.details: PC3, Prostate; 3D soft agar colonies
assay.metric: pIC50
Numbers only, as −log10 of the molar value.

What does the data say about its pIC50? Entry: `COc1cc(N2CCN(C)CC2)c(Cl)cc1Nc1ncc(Cl)c(Nc2cccnc2N2CCCC2=O)n1` 6.06

----------
What Hygroscopicity (%), water uptake was measured for each of the following?
procedure.text: Hygroscopicity by dynamic vapor sorption (DVS)
Type: physicochemical
condition.details: DVS, 25° C./80% RH
Give bare numbers, in %.

Please review the following examples before continuing.
COc1cc(N2CCN(C)CC2)c(Cl)cc1Nc1ncc(Cl)c(Nc2cccnc2N2CCCC2=O)n1 [Succinate Type B] | 8.22
COc1cc(N2CCN(C)CC2)c(Cl)cc1Nc1ncc(Cl)c(Nc2cccnc2N2CCCC2=O)n1 [Mesylate Type A] | 2.74
COc1cc(N2CCN(C)CC2)c(Cl)cc1Nc1ncc(Cl)c(Nc2cccnc2N2CCCC2=O)n1 [L-Malate Type B] | 3.00

Here is the next item to consider.
Fill blank: measured Hygroscopicity (%), water uptake of the molecule COc1cc(N2CCN(C)CC2)c(Cl)cc1Nc1ncc(Cl)c(Nc2cccnc2N2CCCC2=O)n1 [Freebase Type E+F] is ____. 1.55
